Here the recorded Ki is given for each entry.
- assaySystem: human EP1 receptor (Homo sapiens, UniProt P34995)
- Construct: expressed in transfected cells; host or cells: CHO-K1
- assayRemarks: human EP1 calcium mobilisation assay
- Assay type: cell-based
- conditionLabel: human EP1, PGE2-induced calcium mobilisation in CHO-K1 cells; free bases or sodium salts; averages of a number of experiments; read-out: functional pKi value (converted)

Check out these entries, answers already filled in.
1) O=C(O)c1ccc(Cc2cc(Cl)ccc2OCc2cc(F)c(F)cc2F)o1 : ≤ 10 nM
2) NC(=O)c1ccc(Cc2cc(Cl)ccc2OCc2ccccc2)o1 : < 1000 nM
3) Clc1ccc(OCc2ccccc2)c(Cc2ccc(-c3nnc[nH]3)o2)c1 : < 1000 nM
4) CC(C)COc1ccc(Cl)cc1Cc1ccc(-c2nc3ccc(CN(C)CCC#N)cc3[nH]2)o1 : < 1000 nM
5) CC(C)COc1ccc(Cl)cc1Cc1ccc(-c2nc3ccc(CN(C)CC4CCOCC4)cc3[nH]2)o1 : < 1000 nM

Request: Ki, test system human EP1 receptor (Homo sapiens, UniProt P34995), entry "CN1CCN(c2ccc3[nH]c(-c4ccc(Cc5cc(Cl)ccc5OCc5ccccc5)o4)nc3c2)CC1"
< 1000 nM

Try this molecule next: "CC(C)COc1ccc(Cl)cc1Cc1ccc(C(=O)NCc2ccc(-c3cccnc3)cc2)o1"
< 1000 nM

Try this molecule next: "O=C(Nc1c(F)cccc1F)c1ccc(Cc2cc(Cl)ccc2OCc2ccc(Cl)cc2F)o1"
< 1000 nM

Try this molecule next: "O=C(O)c1ccc(Cc2cc(Cl)ccc2OCc2cc(F)c(F)c(F)c2)o1"
≤ 10 nM

* * *

- assaySystem: human EP1 receptor (Homo sapiens, UniProt P34995)
- Construct: expressed in transfected cells; host or cells: CHO-K1
- Sequence (P34995 1-402): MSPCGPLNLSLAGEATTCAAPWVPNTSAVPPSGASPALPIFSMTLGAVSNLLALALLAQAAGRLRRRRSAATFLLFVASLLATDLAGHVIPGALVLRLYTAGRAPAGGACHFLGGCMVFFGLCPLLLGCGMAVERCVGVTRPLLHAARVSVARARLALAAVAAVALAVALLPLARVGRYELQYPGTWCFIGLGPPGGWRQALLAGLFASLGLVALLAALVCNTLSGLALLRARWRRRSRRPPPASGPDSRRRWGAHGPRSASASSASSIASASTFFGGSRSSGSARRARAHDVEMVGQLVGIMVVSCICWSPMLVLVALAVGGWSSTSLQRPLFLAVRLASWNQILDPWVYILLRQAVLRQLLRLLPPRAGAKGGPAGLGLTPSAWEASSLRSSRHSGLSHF
- assayRemarks: human EP1 calcium mobilisation assay
- Format: cell-based
- conditionLabel: human EP1, PGE2-induced calcium mobilisation in CHO-K1 cells; free bases or sodium salts; averages of a number of experiments; read-out: functional pKi value (converted)
Here the recorded Ki is given for each entry.

1) O=C(Nc1c(F)cccc1F)c1ccc(Cc2cc(Cl)ccc2OC2CCCC2)o1 : < 1000 nM
2) CCC(CC)COc1ccc(Cl)cc1Cc1ccc(C(=O)Nc2c(F)cccc2F)o1 : < 1000 nM
3) O=C(NS(=O)(=O)c1ccccc1)c1ccc(Cc2cc(Cl)ccc2OCc2ccc(F)cc2F)o1 : ≤ 10 nM
4) O=C(Nc1c(F)cccc1F)c1ccc(Cc2cc(Cl)ccc2OCc2ccc(F)cc2)o1 : < 1000 nM
5) CC(C)COc1ccc(Cl)cc1Cc1ccc(-c2nc3cnccc3[nH]2)o1 : < 1000 nM
6) Cc1ccc2[nH]c(-c3ccc(Cc4cc(Cl)ccc4OCC(C)C)o3)nc2c1 : < 1000 nM
7) O=C(O)c1ccc(Cc2cc(Cl)ccc2OCc2ccc(F)cc2)o1 : ≤ 10 nM

Now consider a different compound.
So what's the measured Ki for this one? "CC(C)COc1ccc(Cl)cc1Cc1ccc(C(=O)NCc2ccc(C#N)cc2)o1"
< 1000 nM

// provenance: patent US20080287430A1
